- Test system: OVCAR-4 ovarian
- Test description: NCI tumour cell line growth inhibition, 48 h; in the data active = GI50 below about 0.43 µM; inactive = the rest
Write down the outcome that applies. Available outcomes: class 1 for active, class 0 for inactive

Completed entries (count: 2):
{"Substance smiles": "COc1cc2c3c(n(C)c(=O)c2cc1OC)-c1cc2c(cc1/C3=C/[C@H](N)CCCCN)OCO2", "Group": "class 0"}
{"Substance smiles": "CO/N=C(/COc1c(-c2ccccc2)oc2ccccc2c1=O)c1ccc(F)cc1", "Group": "class 0"}

Task: How did this test come out for `COc1ccc(-c2nc3sc4c(c3c(=O)[nH]2)CCCC4)c2ccccc12` ?
Result: class 0

Task: Let us now turn to `Cc1ccc(C[P+](c2ccccc2)(c2ccccc2)c2ccccc2)cc1`
Result: class 0

Task: Let us now turn to `COc1ccc2c(c1)C(=O)c1c-2n(CCCN2CCOCC2)c(=O)c2cc([N+](=O)[O-])ccc12`
Result: class 1

* * *

- Test system: SK-MEL-2 melanoma
- Test description: NCI tumour cell line growth inhibition, 48 h
Label rule, in plain words: TGI of 30 µM and up is 1 (yes), under 30 µM is 0 (no).

Completed entries (count: 5):
{"Compound": "COC(=O)n1c(CBr)c(Br)c2ccccc21", "System under test": "SK-MEL-2 melanoma", "Group": "1 (yes)"}
{"Compound": "OCCO[P+]1(OCCO)n2c3ccc2C(c2ccccc2)=C2C=CC(=N2)C(c2ccccc2)=c2ccc(n21)=C(c1ccccc1)C1=NC(=C3c2ccccc2)C=C1", "System under test": "SK-MEL-2 melanoma", "Group": "0 (no)"}
{"Compound": "Cc1ccc2nc(N/N=C/c3cccc(C)n3)cc(C)c2c1", "System under test": "SK-MEL-2 melanoma", "Group": "1 (yes)"}
{"Compound": "CC(=O)NC1=CC(=O)c2cc(C)cc(O)c2C1=O", "System under test": "SK-MEL-2 melanoma", "Group": "0 (no)"}
{"Compound": "C[C@H](CCC1=NCCN1)[C@H]1CC[C@H]2[C@@H]3CC[C@@H]4C[C@H](O)CC[C@]4(C)[C@H]3C[C@H](O)[C@]12C", "System under test": "SK-MEL-2 melanoma", "Group": "0 (no)"}

Task: Check the entry `O=[N+]([O-])c1ccc(Cl)cc1C=NC12CC3CC(CC(C3)C1)C2` : does TGI equal or exceed 30 µM?
Result: 1 (yes)

Task: Let us now turn to `CO/C(=N\N=C\c1cccc(C(F)(F)F)c1)c1ccncc1`
Result: 1 (yes)

* * *

The reader will find reported TGI values listed item by item below.
- System: MDA-MB-231 breast
- Test description: NCI tumour cell line growth inhibition, 48 h

Answered cases to consult:
{"Molecule": "COc1cc(C2S/C(=C/c3ccccc3)C(=O)N2c2cccc([N+](=O)[O-])c2)cc(OC)c1OC (stereo not given)", "Parameter": "TGI", "Experimental result": "> 100 µM"}
{"Molecule": "CC(C)C1=CC23CCC4C(C)(C(=O)O)CCCC4(C)C2CC1C(C(=O)O)C3C(=O)O (stereo not given)", "Parameter": "TGI", "Experimental result": "> 100 µM"}
{"Molecule": "OCC(O)C(O)C(O)C(/C=N\\Nc1ncnc2ccc(Br)cc12)=N/Nc1ncnc2ccc(Br)cc12 (stereo not given)", "Parameter": "TGI", "Experimental result": "> 100 µM"}
{"Molecule": "CC(C)CCC[C@@H](C)[C@H]1CCC2C3=CCC4C(=O)C=CC(=O)C4C3CC[C@@]21C (stereo not given in full)", "Parameter": "TGI", "Experimental result": "1.32 µM"}
{"Molecule": "COc1ccc(C2(C3c4cc(OC)c(OC)cc4CCN3C)SCCCS2)cc1O (stereo not given)", "Parameter": "TGI", "Experimental result": "> 100 µM"}

Task: I am curious: what TGI value has been reported for `CN(C)CCn1c(=O)c2ccc3c4c(nn3CCN(C)C)c3ccccc3n(c1=O)c24` ?
Result: 1.96 µM

Task: Let us now turn to `Cc1ccc2nc(Cl)c(/C=N/N3C(=O)/C(=C/c4ccc(N(C)C)cc4)N=C3c3ccccc3)cc2c1`
Result: > 100 µM

Task: Let us now turn to CCOC(=O)C(NCc1cccc(C(F)(F)F)c1)(NC(=O)c1ccccc1)C(F)(F)F (stereo not given)
Result: 29.9 µM

Task: Let us now turn to `Cc1ccc2nc(N/N=C/c3cccc(C)n3)cc(C)c2c1`
Result: 36 µM

Task: Let us now turn to `CC(C)CCC/C(CBr)=C(\Cl)CCl`
Result: 8.34 µM

Task: Let us now turn to `COc1ccc(/C=C\c2cc(OC)c(OC)c(OC)c2)cc1OCC(=O)Nc1nc2ccc(OC(F)(F)F)cc2s1`
Result: > 100 µM

Task: Let us now turn to `O=C(c1ccccc1)N1C(=S)N(c2ccc([N+](=O)[O-])cc2)C(=Nc2ccccc2)C1=Nc1ccccc1`
Result: > 100 µM

Task: Let us now turn to `Oc1cc(Cl)ccc1Cc1ccc(Cl)cc1O`
Result: 36.3 µM

* * *

The reader will find reported TGI values listed item by item below.
- Tested on: SK-MEL-5 melanoma
- Test description: NCI tumour cell line growth inhibition, 48 h
Value expressed in µM; do not type the unit.

Answered cases to consult:
{"Compound": "CC(C)CCC/C(CBr)=C(\\Cl)CCl", "Unit descriptor": "µM", "TGI": 6}
{"Compound": "COc1ccc2c(c1)-c1nn(CCN(C)C)c3ccc(C(=O)NCCCN(C)CCCNC(=O)c4ccc5c6c(nn5CCN(C)C)-c5cc(OC)ccc5Nc46)c(c13)N2", "Unit descriptor": "µM", "TGI": 0.313}
{"Compound": "Oc1cc(Cl)ccc1Cc1ccc(Cl)cc1O", "Unit descriptor": "µM", "TGI": 15.8}
{"Compound": "COC1/C=C/C(C)C(C(C)C(OC)C(C)CCC(=O)C(C)C(C/C=C/N(C)C=O)OC)OC(=O)/C=C/C=C(\\C)CC(OC)C(OC)C2=CC(=O)O[C@@H](C(C)C(OC)CC(OC)/C=C/C(C)C(O)C1)[C@H]2O (stereo not given in full)", "Unit descriptor": "µM", "TGI": 0.206}
{"Compound": "COc1cc2c(cc1OC)-c1c(c3ccc([N+](=O)[O-])cc3c(=O)n1CCCN)C2=O", "Unit descriptor": "µM", "TGI": 8.47}
{"Compound": "COc1cc(-c2n/c(=C\\c3c(O)[nH]c4ccccc34)cc3c2=Nc2ccccc2-3)cc(OC)c1OC", "Unit descriptor": "µM", "TGI": 2.88}
{"Compound": "COC(=O)[C@@H]1CCCN1C(=O)[C@H]1CCCN1C(=O)[C@@H](Cc1c[nH]c2ccccc12)NC(=S)Nc1cc(C(F)(F)F)cc(C(F)(F)F)c1", "Unit descriptor": "µM", "TGI": 7.11}

Now consider a different compound.
Task: I am curious: what TGI value has been reported for `CO/C(=N\N=C\c1cccc(C(F)(F)F)c1)c1ccncc1` ?
Result: 32.4

* * *

- Test system: T-47D breast
- Test description: NCI tumour cell line growth inhibition, 48 h
Parameter: TGI (µM)
Value expressed in µM; do not type the unit.

Answered cases to consult:
{"Molecule": "Cc1cc([N+](=O)[O-])ccc1N=NC(=O)NNc1ccc([N+](=O)[O-])cc1C", "Unit descriptor": "µM", "TGI": 28.9}
{"Molecule": "CC(C)=CC1CC(C)C2(CCC3(C)CC4C(C(=O)CC4(C)O)/C(C=O)=C\\CC32)O1 (stereo not given)", "Unit descriptor": "µM", "TGI": 0.143}
{"Molecule": "COc1cc(C2S/C(=C/c3ccccc3)C(=O)N2c2cccc([N+](=O)[O-])c2)cc(OC)c1OC (stereo not given)", "Unit descriptor": "µM", "TGI": 21.4}
{"Molecule": "CN(C)CC(NC(NCS)C(=O)NCCNc1ccc(NCCNC(=O)C(NCS)NC(CN(C)C)OCCl)c2c1C(=O)c1c(O)ccc(O)c1C2=O)OCCl (stereo not given)", "Unit descriptor": "µM", "TGI": 1.62}
{"Molecule": "Cc1cc2nc3c4cccc(O)c4n(CCN(C)C)c3nc2cc1C", "Unit descriptor": "µM", "TGI": 27.9}

Task: I am curious: what TGI value has been reported for `Cc1cn2c(=O)n(c1=O)Cc1ccccc1C2` ?
Result: 10.8

* * *

The reader will find reported GI50 values listed item by item below.
- Test system: 786-0 renal
- Test description: NCI tumour cell line growth inhibition, 48 h

{"Substance smiles": "COc1cc2c(cc1OCCCN1CCN(c3cc(=O)oc4c(C)c(OC)ccc34)CC1)N=C[C@@H]1CCCN1C2=O", "Parameter": "GI50", "Experimental result": "1050 nM"}
{"Substance smiles": "Cc1cn2c(=O)n(c1=O)Cc1ccccc1C2", "Parameter": "GI50", "Experimental result": "68700 nM"}
{"Substance smiles": "O=[N+]([O-])c1cccc(-c2cc(-c3cc(Br)ccc3O)[nH]n2)c1", "Parameter": "GI50", "Experimental result": "1700 nM"}
{"Substance smiles": "COc1cc2ncn(-c3cc(OCc4ccccc4S(C)(=O)=O)c(C#N)s3)c2cc1OC", "Parameter": "GI50", "Experimental result": "> 25000 nM"}

Task: I am curious: what GI50 value has been reported for `Cc1ccc(C[P+](c2ccccc2)(c2ccccc2)c2ccccc2)cc1` ?
Result: 1710 nM
